# System: Vero E6 infected with SARS-CoV-2
# measurement_notes: inhibition of SARS-CoV-2 cytopathic effect; higher = more antiviral protection, active = above 15
# condition_summary: 1 nM; 48 h
readout_label: inhibition of SARS-CoV-2 cytopathic effect (%)
Provide only the numeric value, understood in %.

A selection of reference data follows.
>>> experimental_value("CC(=O)OCC(=O)[C@@]1(O)CC[C@H]2[C@@H]3CCC4=CC(=O)CC[C@]4(C)[C@H]3[C@@H](O)C[C@@]21C [hydrocortisone-acetate]")
-3.27
>>> experimental_value("O=C(O)[C@@H](S)[C@@H](S)C(=O)O")
0.73
>>> experimental_value("Sc1ncnc2nc[nH]c12")
-0.65
>>> experimental_value("Fc1ccc(-n2cc(CCCCN3CCC4(CC3)OCc3ccccc34)c3ccccc32)cc1")
0.05
>>> experimental_value("Oc1noc2c1CCNC2")
-0.68

I'd like to know its inhibition of SARS-CoV-2 cytopathic effect. The compound in question is `Cc1cc(OCCN2CCOCC2)nn1-c1ccc2ccccc2c1`
-2.51

# repeat for COc1ccc2cc(-c3nc(-c4ccc([S+](C)[O-])cc4)[nH]c3-c3ccncc3)ccc2c1 (centres undefined)
5.39

// query: `Cc1ccc(/C=N/NC(=O)c2ccccc2Oc2ccccc2)o1`
-1.75
